All figures here come from the supplement of paper PMC4862054.

Tested on: MDA-MB-468
assay.summary: drug sensitivity score (DSS), CellTox Green (DSS (AUC-based score)); higher = stronger drug effect (viability inhibition or cytotoxicity); extreme values may be limits of the assay
test.conditions: incubation time: 72 h
endpoint.name: drug sensitivity score

# compound, obs.value
measured = [
    ("CO[C@H]1C[C@@H]2CC[C@@H](C)[C@@](O)(O2)C(=O)C(=O)N2CCCC[C@H]2C(=O)O[C@H]([C@H](C)C[C@@H]2CC[C@@H](O)[C@H](OC)C2)CC(=O)[C@H](C)/C=C(\\C)[C@@H](O)[C@@H](OC)C(=O)[C@H](C)C[C@H](C)/C=C/C=C/C=C/1C [Sirolimus]", 0),
    ("CC/C(=C(\\c1ccccc1)c1ccc(OCCN(C)C)cc1)c1ccccc1 [Tamoxifen]", 3.42),
    ("CC(C)NC[C@@H](C(=O)N1CCN(c2ncnc3c2[C@H](C)C[C@H]3O)CC1)c1ccc(Cl)cc1 [GDC-0068]", 3.49),
    ("C[C@@H](C(=O)O)c1ccc(-c2ccccc2)c(F)c1 [Tarenflurbil]", 0),
    ("CCN(CC)CCOc1ccc(C(=C(Cl)c2ccccc2)c2ccccc2)cc1 [Clomifene]", 0),
    ("CC(C)C[C@H](NC(=O)[C@H](CCc1ccccc1)NC(=O)CN1CCOCC1)C(=O)N[C@@H](Cc1ccccc1)C(=O)N[C@@H](CC(C)C)C(=O)[C@@]1(C)CO1 [Carfilzomib]", 37.2),
]
